Reference source for all entries: patent US20240239892A1

tested-target: T1, PD-1 (analyte of the SPR assay of Example 3) (human, UniProt Q15116 21-167, limits assumed)
T1 construct: also called human PD-1
T1 sequence (Q15116 21-167 limits assumed): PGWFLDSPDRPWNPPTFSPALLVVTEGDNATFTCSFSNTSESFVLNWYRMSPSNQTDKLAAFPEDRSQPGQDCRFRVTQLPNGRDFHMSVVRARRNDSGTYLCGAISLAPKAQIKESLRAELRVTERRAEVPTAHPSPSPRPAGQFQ
experiment: SPR (Biacore 8K), antibody captured by anti-human Fc, PD-1 as analyte
quantity-measured: Kd (nM)

[[record]]
binder = "anti-PD-1 antibody VH7+VL6 (antibody, human IgG1, kappa, V domains shown, also called HC2 + LC2) VH: EVQLVESGGGLVQPGGSLRLSCAASGFTFSSYGMSWVRQAPGKGLEWVAIISGGGRDIYYLDSVKGRFTISRDNSKNNLYLQMNSLRAEDTAVYYCSSPIYDAYSFAYWGQGTLVTVSS VL: EIVLTQSPATLSVSPGERATLSCRASQTISNNLHWYHQKPGQAPRLLIKYASQSISGIPSRFSGSGSGTDFTLTISSLQSEDFAVYFCQQSYSWPLTFGGGTKLEIKR"
quantity_measured = "Kd"
quantitative_result = 1.41

